System: HL-60(TB) leukemia
Assay: NCI tumour cell line growth inhibition, 48 h
Listed here: items and their measured GI50.

A selection of reference data follows.
# CPD_SMILES, GI50
data = [
    ("C1C[OH+]CCNCC[OH+]CC[OH+]CCN1.N.[Cl-].[Pt+4]", "> 100 µM"),
    ("CC1(C)N=c2cc3c(cc2N1c1ccc(Cl)cc1)=Nc1ccccc1N3c1ccc(Cl)cc1", "1.74 µM"),
    ("Cc1c[nH]c(=O)n(Cc2nnc(CCC(=O)c3nc4ccccc4[nH]3)o2)c1=O", "0.966 µM"),
]

Sure, the documented GI50 for O=c1oc2ccc(Cl)cc2c(=O)n1-c1ccc(F)cc1F is 1.88 µM

====

Test system: OVCAR-8 ovarian
Test: NCI tumour cell line growth inhibition, 48 h
QUANTITY: TGI

OVCAR-8 ovarian assay, molecule Cc1ccc2nc(CN(CCO)CCO)cc(=O)n2c1 , recorded TGI = > 100 µM

OVCAR-8 ovarian assay, molecule Cc1ccc(-c2nc(/C=N/Nc3cc(C)nc4ccc(Br)cc34)c(C)o2)cc1 , recorded TGI = 4.4 µM

OVCAR-8 ovarian assay, molecule CC(ON1[C@](C)(c2ccccc2)CC[C@@]1(C)c1ccccc1)c1ccccc1 (some centres undefined) , recorded TGI = > 100 µM

OVCAR-8 ovarian assay, molecule COc1ccc([Se][Se]c2ccc(OC)cc2OC)c(OC)c1 , recorded TGI = > 100 µM

OVCAR-8 ovarian assay, molecule COc1ccc(C(=O)c2nc3ccccc3nc2N2CCN(c3ccccc3)CC2)cc1OC , recorded TGI = > 100 µM

OVCAR-8 ovarian assay, molecule CC(=O)Nc1ccc(OC(C)=O)cc1 , recorded TGI = > 49.1 µM

OVCAR-8 ovarian assay, molecule CC1=C(SCCO)C(=O)c2ccccc2C1=O , recorded TGI = 28.6 µM

OVCAR-8 ovarian assay, molecule COC(=O)/C(=N\NC(N)=O)C(C#N)c1ccccc1 (centres undefined) , recorded TGI = > 100 µM

OVCAR-8 ovarian assay, molecule COc1ccc(N/N=C/C2=CC(C)(C)C(C#N)(C#N)C(O)=C2C#N)cc1 , recorded TGI = > 100 µM

====

System: HOP-18 NSCLC
Test: NCI tumour cell line growth inhibition, 48 h
QUANTITY: TGI

A selection of reference data follows.
# COMPOUND, TGI
measured = [
    ("C[C@]12CCc3nonc3C1CC[C@@H]1C2CC[C@@]2(C)C1CC[C@@H]2O (stereo not given in full)", "> 100 µM"),
    ("Cc1nc(-n2nc(-c3ccccc3)cc2-c2ccccc2)sc1C(=O)/C=C/c1ccc([N+](=O)[O-])cc1", "> 100 µM"),
    ("O=C(CC1(O)C(=O)Nc2ccc([N+](=O)[O-])cc21)c1ccncc1 (stereo not given)", "> 100 µM"),
    ("O=c1c(C(c2ccc([N+](=O)[O-])cc2)c2c(O)c3ccccc3n(-c3ccccc3)c2=O)c(O)c2ccccc2n1-c1ccccc1", "9.08 µM"),
    ("CC(C)C1=CC2=CC[C@@H]3[C@](C)(CCC[C@@]3(C)C(=O)O)[C@H]2CC1", "> 100 µM"),
]

Sure, the documented TGI for Brc1ccc(C=NC23CC4CC(CC(C4)C2)C3)cc1 is > 100 µM

Sure, the documented TGI for CC(=O)[CH-]C(C)=O.CC(=O)[CH-]C(C)=O.[Cl-].[O]=[V] is > 100 µM

====

Tested on: SK-OV-3 ovarian
Assay: NCI tumour cell line growth inhibition, 48 h
QUANTITY: TGI

A selection of reference data follows.
# MOLECULE, STUDY_TARGET, TGI
rows = [
    ("O=C(O)/C=C/c1ccc(OS(=O)(=O)O)cc1", "SK-OV-3 ovarian", "> 100 µM"),
    ("O=C1/C(=C/C=C/c2ccccc2)N=C(c2ccccc2)N1c1ccc(S(=O)(=O)Nc2nccs2)cc1", "SK-OV-3 ovarian", "85.2 µM"),
    ("COc1ccc(-c2cc(=O)c3cc(C)c(C)c(C(=O)O)c3o2)cc1", "SK-OV-3 ovarian", "> 100 µM"),
    ("O=S(=O)(O)n1ccnc1 (tested in a mixture with another compound)", "SK-OV-3 ovarian", "> 100 µM"),
    ("CC(C)(C)OC(=O)NCCC1CNc2ccccc21 (stereo not given)", "SK-OV-3 ovarian", "> 100 µM"),
    ("CN1N=C2c3ccccc3OC(c3ccccc3)[C@H]2C1c1ccccc1 (stereo not given in full)", "SK-OV-3 ovarian", "> 100 µM"),
    ("O=[N+]([O-])c1ccc(N=Nc2c(Cl)cc(O)cc2Cl)cc1", "SK-OV-3 ovarian", "10.3 µM"),
    ("Brc1ccc(C=NC23CC4CC(CC(C4)C2)C3)cc1", "SK-OV-3 ovarian", "> 100 µM"),
    ("O=c1c(C(c2ccc([N+](=O)[O-])cc2)c2c(O)c3ccccc3n(-c3ccccc3)c2=O)c(O)c2ccccc2n1-c1ccccc1", "SK-OV-3 ovarian", "> 100 µM"),
]

Sure, the documented TGI for CCOP(=O)(Nc1ccc(-c2ccc(N)cc2)cc1)OCC is > 100 µM

====

Test system: SF-539 CNS
Assay: NCI tumour cell line growth inhibition, 48 h
QUANTITY: TGI

# COMPOUND, RESULT
data = [
    ("COc1cc2c(c(OC)c1OC)-c1c(c3ccc([N+](=O)[O-])cc3c(=O)n1CCCBr)C2=O", "17.9 µM"),
    ("COc1ccc(NC(=O)C(C#N)=C(SC)SC)cc1", "> 100 µM"),
    ("O=C1OC(c2ccc(Cl)cc2)=N/C1=C\\c1ccccc1", "> 100 µM"),
    ("[Co].[O-]c1cccnc1C=Nc1ccccc1.[OH3+]", "> 100 µM"),
]

For the next question, use this compound.
Sure, the documented TGI for CCOC(=O)C(NC(=O)c1ccccc1)(c1ccc(S(=O)(=O)Nc2onc(C)c2C)cc1)C(F)(F)F (stereo not given) is > 100 µM

====

Tested on: HOP-18 NSCLC
Assay: NCI tumour cell line growth inhibition, 48 h
Listed here: items and their measured TGI.

# COMPOUND, STUDY_TARGET, TGI
data = [
    ("COc1cc(/C=C2\\NC(=O)C3Cc4c(OC)c(C)c(OC)c(OC)c4C2N3C)c(OC)c(C)c1OC (stereo not drawn)", "HOP-18 NSCLC", "> 100 µM"),
    ("C#CC(C)(C)OCCCCOc1cc(O)c2c(=O)c3ccccc3n(C)c2c1", "HOP-18 NSCLC", "> 100 µM"),
]

For the next question, use this compound.
Sure, the documented TGI for O=[N+]([O-])c1cc(I)cc(/C=N/NS(=O)(=O)c2ccc(Cl)cc2)c1O is 45.5 µM
